The values you see were collected from patent US11472778B2.

Field: EC50. Provide a value for each of the molecules that follow.
System: HCV replicon A156T variant in Huh7 cells
Assay: microbe, parasite or virus in culture
Assay type: cell-based, Hepatitis C virus
Details: Hepatitis C virus, Huh-7, 96 h, read-out: Replicon EC50 (nM) A156T, Table 2; Huh7 cells, luciferase 96 h
Numbers only, in nM.

Molecule	EC50 (nM)
COc1ccc2nc(Cl)c(O[C@@H]3C[C@H]4C(=O)N[C@]5(C(=O)NS(=O)(=O)C6(C)CC6)C[C@H]5/C=C\CCCCC[C@H](NC(=O)OC5CCCC5)C(=O)N4C3)nc2c1 [Compound 23c]	4.32

Give EC50 for each of the items listed below.
1. COc1ccc2nc(Cl)c(O[C@@H]3C[C@H]4C(=O)N[C@]5(C(=O)NS(=O)(=O)C6CC6)C[C@H]5/C=C\CCCCC[C@H](NC(=O)OC5CCCC5)C(=O)N4C3)nc2c1 [Compound 22c]
2. COc1ccc2nc(C)c(O[C@@H]3C[C@H]4C(=O)N[C@]5(C(=O)NS(=O)(=O)C6CC6)C[C@H]5/C=C\CCCCC[C@H](NC(=O)OC(C)(C)C)C(=O)N4C3)nc2c1 [Compound 18b]
3. COc1ccc2nc(C(C)C)c(O[C@@H]3C[C@H]4C(=O)N[C@]5(C(=O)NS(=O)(=O)C6(C)CC6)C[C@H]5/C=C\CCCCC[C@H](NC(=O)OC5CCCC5)C(=O)N4C3)nc2c1 [Compound 23e]
4. COc1ccc2nc(C(F)(F)F)c(O[C@@H]3C[C@H]4C(=O)N[C@]5(C(=O)NS(=O)(=O)C6(C)CC6)C[C@H]5/C=C\CCCCC[C@H](NC(=O)OC(C)(C)C)C(=O)N4C3)nc2c1 [Compound 19d]

## Output
[3.55, 5.95, 27.6, 20.5]
